# Test system: PrEC
# METHOD SUMMARY: Cell viability assay (CellTiter-Glo, 5 days)
# Assay type: cell-based
# SETTINGS: Homo sapiens, 120 h, 5 days of treatment, Figure 1F
pIC50: −log10 of the molar value.

COMPOUND	LIMIT OPERATOR	pIC50
CN(C)C/C=C/C(=O)Nc1ccc(C(=O)N2CCC[C@@H](Nc3ncc(Cl)c(-c4c[nH]c5ccccc45)n3)C2)cc1 [THZ531, reference compound]	=	6.47
O=C1CCC(N2C(=O)c3cccc(OCC(=O)N4CCN(c5ccc(N(C(=O)NCc6ccccc6)C6CCC(Nc7ncc8ccccc8n7)CC6)cc5)CC4)c3C2=O)C(=O)N1 (centres unmarked) [YJ9069]	<	5.00

====

# METHOD SUMMARY: Pharmacokinetic profile in Sprague Dawley rats
# Assay type: in vivo, rat
# SETTINGS: Sprague-Dawley, rat, plasma, iv; SD rats, i.v. 2.5 mg/kg; read-out: AUC(0-t)

MOLECULE	RESULT UNIT	AUC(0-t)
O=C1CCC(N2C(=O)c3cccc(OCC(=O)N4CCN(c5ccc(N(C(=O)NCc6ccccc6)C6CCC(Nc7ncc8ccccc8n7)CC6)cc5)CC4)c3C2=O)C(=O)N1 (stereo not shown)	ng·h/mL	2930

====

# METHOD SUMMARY: Pharmacokinetic profile in CD-1 mice
# Format: in vivo
# SETTINGS: plasma, oral; CD-1 mouse, p.o. 10 mg/kg vs i.v. 2.5 mg/kg; read-out: F% (oral bioavailability)
OBSERVABLE: bioavailability (%)

MOLECULE	ENDPOINT RESULT
O=C1CCC(N2C(=O)c3cccc(OCC(=O)N4CCN(c5ccc(N(C(=O)NCc6ccccc6)C6CCC(Nc7ncc8ccccc8n7)CC6)cc5)CC4)c3C2=O)C(=O)N1 (stereo not shown) [YJ9069]	1.02

====

# METHOD SUMMARY: Pharmacokinetic profile in CD-1 mice
# Assay type: in vivo
# SETTINGS: plasma, iv; CD-1 mouse, i.v. 2.5 mg/kg
OBSERVABLE: Cmax (ng/mL)

MOLECULE	ENDPOINT RESULT
O=C1CCC(N2C(=O)c3cccc(OCC(=O)N4CCN(c5ccc(N(C(=O)NCc6ccccc6)C6CCC(Nc7ncc8ccccc8n7)CC6)cc5)CC4)c3C2=O)C(=O)N1 (stereo not shown)	3650

====

# System: SK-BR-3
# METHOD SUMMARY: Cell viability assay (CellTiter-Glo, 5 days)
# Format: cell-based
# SETTINGS: Homo sapiens, 120 h; SK-BR-3, 5 days of treatment, Figure 1F
pIC50: −log10 of the molar value.
OBSERVABLE: pIC50

MOLECULE	ENDPOINT RESULT
CN(C)C/C=C/C(=O)Nc1ccc(C(=O)N2CCC[C@@H](Nc3ncc(Cl)c(-c4c[nH]c5ccccc45)n3)C2)cc1 [THZ531, reference compound]	7.19
O=C1CCC(N2C(=O)c3cccc(OCC(=O)N4CCN(c5ccc(N(C(=O)NCc6ccccc6)C6CCC(Nc7ncc8ccccc8n7)CC6)cc5)CC4)c3C2=O)C(=O)N1 (centres unmarked) [YJ9069]	5.89

====

# METHOD SUMMARY: Pharmacokinetic profile in CD-1 mice
# Assay type: in vivo
# SETTINGS: plasma, iv; CD-1 mouse, i.v. 2.5 mg/kg

COMPOUND	RESULT UNIT	half-life
O=C1CCC(N2C(=O)c3cccc(OCC(=O)N4CCN(c5ccc(N(C(=O)NCc6ccccc6)C6CCC(Nc7ncc8ccccc8n7)CC6)cc5)CC4)c3C2=O)C(=O)N1 (stereo not shown) [YJ9069]	h	5.23
